experimental-system: P. aeruginosa LpxC (Pseudomonas aeruginosa, UniProt P47205)
Sequence (P47205 1-303): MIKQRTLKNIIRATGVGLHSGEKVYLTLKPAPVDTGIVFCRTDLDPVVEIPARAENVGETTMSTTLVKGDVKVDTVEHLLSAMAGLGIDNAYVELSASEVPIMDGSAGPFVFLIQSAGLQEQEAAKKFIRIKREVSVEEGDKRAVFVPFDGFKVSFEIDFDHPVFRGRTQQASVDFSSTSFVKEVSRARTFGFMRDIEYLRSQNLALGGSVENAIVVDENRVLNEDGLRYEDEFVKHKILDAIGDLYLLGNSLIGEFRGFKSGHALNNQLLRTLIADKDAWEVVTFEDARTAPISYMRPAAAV
assay-summary: Inhibition of purified LpxC enzyme
Assay type: biochemical
metric: pIC50
Answers are plain numbers, as −log10 of the molar value.

Can you look up the measured pIC50 of CC(C)(N)C(NC(=O)c1ccc(OCC#CC2CC2)cc1)C(=O)NO (stereo not shown) for me?
7.40

* * *

Test system: K. pneumoniae NB29017
assay-summary: Qualitative inhibition of mucoid appearance of colonies on solid LB agar
Assay type: cell-based, Klebsiella pneumoniae
measurement-parameters: 4 μg/mL compound in agar; 4 fully mucoid, 0 nonmucoid, by eye
metric: qualitative score on solid medium
One number for each entry.

>  <molecule>
O=C(/C=C/c1ccccc1)Nc1ccc(C(=O)Nc2nccs2)cc1

>  <metric>
qualitative score on solid medium

>  <value>
0

$$$$
>  <molecule>
CCOc1ccc2nc(NC(=O)c3ccc4ncsc4c3)sc2c1

>  <metric>
qualitative score on solid medium

>  <value>
0

$$$$
>  <molecule>
CCOc1cccc(C(=O)Nc2ccc(-c3nc4ccccc4[nH]3)cc2)c1

>  <metric>
qualitative score on solid medium

>  <value>
2

$$$$
>  <molecule>
Cc1cc(C)c2c(=O)cc(C(=O)Nc3nc4ccc(F)cc4s3)oc2c1

>  <metric>
qualitative score on solid medium

>  <value>
1

$$$$
>  <molecule>
CCCCNC(=O)NS(=O)(=O)c1cccs1

>  <metric>
qualitative score on solid medium

>  <value>
3

$$$$

Take each entry in turn and give its qualitative score on solid medium.
1. O=C(Nc1nnc(Cl)s1)c1ccco1
2. CCOc1ccc2nc(NC(=O)c3cc(=O)c4ccc(C)cc4o3)sc2c1
3. COc1ccc(Br)c(/C=N/NC(=O)COc2ccc(-c3ccccc3)cc2)c1
4. CC12CC3(C)CC(C(=O)O)(C1)CC(C(=O)O)(C2)C3
5. COc1ccc2nc(NC(=O)c3cc(=O)c4ccccc4o3)sc2c1
6. C=CCSc1nnc(C)c(O)n1 [D1, C=CCSc1nnc(C)c(O)n1, reference compound]

1: 0; 2: 2; 3: 0; 4: 3; 5: 0; 6: 3

Dear colleague, could you please provide qualitative score on solid medium for the molecules listed below?
1. COc1ccc(-c2csc(NC(=O)c3ccc(C(=O)Nc4nc(-c5ccc(OC)c(OC)c5)cs4)s3)n2)cc1OC
2. CCOC(=O)c1ccc2nc(NC(=O)c3cccs3)sc2c1

0
0

* * *

assay-summary: Red blood cell hemolysis
Format: cell-based, sheep
measurement-parameters: sheep, erythrocytes from defibrinated sheep blood, pH 7.5
metric: hemolysis at 1 h (%)
Give bare numbers, in %.

Below are worked cases with known answers.
>  <query-smiles>
O=C(O)c1cc(Br)ccc1F

>  <hemolysis at 1 h, %>
2.5

$$$$
>  <query-smiles>
COc1ccc2nc(NC(=O)c3cc(=O)c4ccccc4o3)sc2c1

>  <hemolysis at 1 h, %>
8.3

$$$$
>  <query-smiles>
COc1ccc(Br)c(/C=N/NC(=O)COc2ccc(-c3ccccc3)cc2)c1

>  <hemolysis at 1 h, %>
4.1

$$$$
>  <query-smiles>
CCCCNC(=O)NS(=O)(=O)c1cccs1

>  <hemolysis at 1 h, %>
7.4

$$$$
>  <query-smiles>
Cc1nc(O)n2ncc(Br)c2n1

>  <hemolysis at 1 h, %>
2.5

$$$$
>  <query-smiles>
CC12CC3(C)CC(C(=O)O)(C1)CC(C(=O)O)(C2)C3

>  <hemolysis at 1 h, %>
2.8

$$$$

Hi there! I need hemolysis at 1 h for each item below, if you can.
1. O=C(Nc1nnc(Cl)s1)c1ccco1
2. CCOc1ccc2nc(NC(=O)c3cc(=O)c4ccc(C)cc4o3)sc2c1

1.5
1.5
